- tested-on: Phosphodiesterase 3 (Homo sapiens) (UniProt Q14432+Q13370)
- test-method-notes: Inhibition of [3H]cAMP binding to human phosphodiesterase 3 at 30 uM; Inactive
- Format: protein assay
Activity calls are given as the source filed them. No cut-off for these calls is given here.
measurement-type: Effect

Below are worked cases with known answers.
compound-structure: COc1cccc(OC[C@H](C)c2nc3c(N)ncn(Cc4ccc(OC)c(OC5CCCC5)c4)c-3n2)c1
Effect: inactive

compound-structure: COc1ccc(Cn2cnc(N)c3nc(C(C)(C)COc4ccc(C(N)=O)cc4)nc2-3)cc1OC1CCCC1
Effect: inactive

compound-structure: COC(=O)c1ccc(OCC(C)(C)c2nc3c(N)ncn(Cc4ccc(OC)c(OC5CCCC5)c4)c-3n2)cc1
Effect: inactive

compound-structure: COc1ccc(Cn2cnc(N)c3nc(C(C)(C)COc4ccc(C(=O)O)cc4)nc2-3)cc1OC1CCCC1
Effect: inactive

So what Effect did CCNc1ncn(Cc2ccc(OC)c(OC3CCCC3)c2)c2nc(C(C)C)nc1-2 get with Phosphodiesterase 3 (Homo sapiens) (UniProt Q14432+Q13370)?
inactive
